System: MALME-3M melanoma
Assay: NCI tumour cell line growth inhibition, 48 h
Recorded TGI, one value per entry.

Inquiry: Suppose we examine the compound CC(=O)c1c[nH]cc1CO ; what TGI value has been reported?
Reply text: > 10 µM

Inquiry: Look up TGI for this compound: Cc1ccc(N2C(=O)/C(=C/c3ccc(N(CCC#N)CCC#N)cc3C)N=C2c2cc([N+](=O)[O-])ccc2Cl)cc1
Reply text: > 100 µM

Inquiry: Field request: TGI | item: CC1/C(=N/Nc2ccc([N+](=O)[O-])cc2)CC2C3(C)CCC2(C(C)C(=O)O)C(=O)C13 (stereo unspecified)
Reply text: > 100 µM

Inquiry: // query TGI value for entry CN(C)CCCNc1ccc2nnn3c4ccc(OC(=O)c5ccc([N+](=O)[O-])cc5)cc4c(=O)c1c23
Reply text: 27.2 µM

---
Inquiry: Which TGI value belongs to [C-]#[N+]C1(C(=O)OCC)CC1 ?
Reply text: > 100 µM

Inquiry: Reported TGI for O=C1C[C@@H]2CCCC[C@@H]2C12SCCS2 : what is it?
Reply text: > 100 µM

Inquiry: Find the recorded TGI belonging to CCOC1C=CCCO1 (stereo unspecified) and report it.
Reply text: > 100 µM

Inquiry: Using the record for C1=NCCNCCN=Cc2ccccc2OCc2cccc(n2)COc2ccccc21 , report its TGI.
Reply text: > 80.7 µM

Inquiry: Given the entry O=C(/C=C(\O)c1ccc(Cl)cc1)C(=O)NN=C(c1ccccc1)c1ccccc1 , report its measured TGI.
Reply text: > 100 µM

Inquiry: Which measured TGI value corresponds to O=C1C(=C(C(=O)c2ccccc2)C(=O)c2ccccc2)OC(c2ccccc2)=C1C(=O)c1ccccc1 ?
Reply text: 39.4 µM

Inquiry: For OCCNCCNc1c2ccccc2nc2oc3ccccc3c12 , what is its reported TGI?
Reply text: 41.8 µM

====

Tested on: SNB-19 CNS
Assay: NCI tumour cell line growth inhibition, 48 h; in the data active = GI50 below about 0.43 µM; inactive = the rest
Tick one outcome: active, inactive

Inquiry: # outcome recorded in this test, key = COC(=O)c1cc2oc(/C=C3\SC(=S)N(NC(C)=O)C3=O)cc2n1Cc1ccccc1
Reply text: inactive

Inquiry: // param item: COc1ccc(/C=C/C(=O)c2cc3c(N)c(C(=O)Nc4ccccc4)sc3nc2C)cc1 ; yields the recorded call
Reply text: active

Inquiry: Could you check what this test reported for Oc1ccc(N=Nc2ccc(N=Nc3ccccc3)cc2)cc1 ?
Reply text: inactive

Inquiry: Outcome logged for CN(C)c1ccc(O)c2c1C[C@H]1C[C@H]3[C@H](N(C)C)C(=O)C(C(N)=O)=C(O)[C@@]3(O)C(=O)C1=C2O in this assay:
Reply text: inactive

Inquiry: Please state the recorded outcome for this molecule: CCCCCCCCCCCC[n+]1ccc(C(N)=O)cc1
Reply text: inactive

Inquiry: Record lookup: outcome of this test for O=C1/C(=C/c2ccc(Cl)cc2)COc2ccc(O)c(O)c21 ?
Reply text: inactive

Now, please, on to the next molecule.
Inquiry: For this molecule, state the assay outcome: COc1ccc2c(c1)OC(N)=C(C#N)C2c1ccc(F)cc1 (configuration not stated)
Reply text: inactive

====

Tested on: MCF7 breast
Test: NCI tumour cell line growth inhibition, 48 h
Listing of recorded TGI by entry.

Inquiry: Param item = O=C(Cc1ccccc1)NNc1nc(NNC(=O)c2ccncc2)nc(Nc2ccc(Cl)cc2)n1 ; retrieve measured TGI.
Reply text: > 10 µM

Inquiry: Data request, read-out TGI, for CC(C)CCCC(C)[C@H]1CC[C@H]2[C@@H]3CC[C@H]4C[C@@H](CCC=C(c5cc(Cl)c(O)c(C(=O)O)c5)c5cc(Cl)c(O)c(C(=O)O)c5)CC[C@]4(C)[C@H]3CC[C@]12C (stereo not given in full) (tested in a mixture with another compound)
Reply text: > 50 µM

Inquiry: # query: TGI of entry COc1ccc2c(c1)CCCN1Cc3ccccc3CC21 (stereo not given)
Reply text: > 100 µM

Inquiry: I'd like to know its TGI. The molecule in question is C[C@@H]1C[C@@]2(O[C@@H]2C)C(=O)O[C@@H]2CCN3CC=C(COC(=O)[C@]1(C)O)[C@H]23
Reply text: > 100 µM

Inquiry: Quick check: TGI of O=[N+]([O-])c1ccc(NC(=S)Nc2ccccn2)cc1 ?
Reply text: > 100 µM

Inquiry: Look up TGI for this molecule: CN(C)c1ccc(N=Nc2cccc3ncccc23)cc1
Reply text: > 100 µM

Inquiry: Would you mind telling me what TGI value was observed for O=C1/C(=C/c2ccc(Cl)cc2)COc2ccc(O)c(O)c21 ?
Reply text: 2.15 µM

Inquiry: // lookup TGI for Nc1ccccc1OCc1cc(=O)c(OCc2ccccc2)co1
Reply text: 89 µM

New cases:
Inquiry: Dear colleague, I am looking for the recorded TGI of the following molecule: COC(=O)c1cc2oc(/C=C3\SC(=S)N(NC(C)=O)C3=O)cc2n1Cc1ccccc1
Reply text: > 50 µM

Inquiry: Suppose we examine the molecule O=C(N/N=C\c1ccc(N(CCCl)CCCl)cc1Cl)c1cccnc1 ; what TGI value has been reported?
Reply text: > 82.6 µM

Inquiry: Suppose we examine the molecule CSC1C(=O)c2ccccc2/C(=N/Nc2nc3ccccc3s2)C1C (stereo not given) ; what TGI value has been reported?
Reply text: 34.7 µM

Inquiry: Which TGI is listed for COCCNC(=O)c1ccc(-c2nc3ccc4[nH]ncc4c3c3c2CCCC3)cc1 ?
Reply text: 20.4 µM

Inquiry: Any idea what TGI was measured for COc1ccc2nc3ccc(OC)cc3c(SCC3CO3)c2c1 (stereo not given) ?
Reply text: 26.6 µM

Inquiry: Any idea what TGI was measured for Nc1ncnc2c(C3OC(CO)C(O)C3O)nsc12 (stereo not given) ?
Reply text: > 100 µM
